# SYSTEM UNDER TEST: Delta-type opioid receptor (Mus musculus, UniProt P32300)
# Sequence (P32300 whole entry): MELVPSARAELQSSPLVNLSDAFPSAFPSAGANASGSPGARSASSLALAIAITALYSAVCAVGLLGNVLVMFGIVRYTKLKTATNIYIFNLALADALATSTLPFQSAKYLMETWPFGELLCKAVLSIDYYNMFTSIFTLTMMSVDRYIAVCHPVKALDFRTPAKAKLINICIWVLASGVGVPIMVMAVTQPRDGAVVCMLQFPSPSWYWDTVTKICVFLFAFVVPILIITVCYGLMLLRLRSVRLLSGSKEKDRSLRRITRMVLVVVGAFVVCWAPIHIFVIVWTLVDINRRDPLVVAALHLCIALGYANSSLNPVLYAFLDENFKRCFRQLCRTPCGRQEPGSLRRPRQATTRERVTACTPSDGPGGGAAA
# MEASUREMENT DESCRIPTION: Agonist activity at delta opioid receptor in mouse vas deference assessed as inhibition of electrically-stimulated contraction
MEASURE: pIC50
Recall that pIC50 is obtained by taking minus log10 of the concentration measured in molar.

Reported pIC50 for NC(=O)[C@H](Cc1ccccc1)NC(=O)[C@H](Cc1ccccc1)NC(=O)[C@@H]1C=CCN1C(=O)[C@@H](N)Cc1ccc(O)cc1 : what is it?
4.15

----------
Below: a set of entries, each annotated with reported Ki.
# SYSTEM UNDER TEST: Delta-type opioid receptor (Rattus norvegicus)
# Sequence (P33533 whole entry): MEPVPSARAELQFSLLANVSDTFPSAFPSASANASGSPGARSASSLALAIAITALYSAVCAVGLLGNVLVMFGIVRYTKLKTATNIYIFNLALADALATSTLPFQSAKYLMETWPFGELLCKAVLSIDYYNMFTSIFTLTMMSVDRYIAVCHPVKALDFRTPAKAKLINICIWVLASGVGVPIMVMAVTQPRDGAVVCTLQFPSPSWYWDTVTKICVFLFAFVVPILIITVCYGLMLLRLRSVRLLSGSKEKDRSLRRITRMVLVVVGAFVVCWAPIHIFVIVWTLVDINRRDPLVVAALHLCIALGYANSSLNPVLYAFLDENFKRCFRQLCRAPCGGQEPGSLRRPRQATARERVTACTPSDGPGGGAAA
# MEASUREMENT DESCRIPTION: Displacement of [3H][…] from delta opioid receptor in rat brain membrane by liquid scintillation counting
Where a SMILES comes first, the peptide text is derived from it. [ ]: non-standard residue; d: D form. Dha = C=C(N)C(=O)O
Give just the numeric value; µM need not be written.

Some solved cases for reference:
> print(dat)
                                   compound  experimental.result
1  NC(=O)[C@H](Cc1ccccc1)NC(=O)[C@H](Cc1c[nH]c2ccccc12)NC(=O)[C@@H]1CCN1C(=O)[C@@H](N)Cc1ccc(O)cc1                  3.5
2  NC(=O)[C@H](Cc1ccccc1)NC(=O)[C@H](Cc1c[nH]c2ccccc12)NC(=O)C1CN(C(=O)[C@@H](N)Cc2ccc(O)cc2)C1                 0.04
3  NC(=O)[C@H](Cc1ccccc1)NC(=O)[C@H](Cc1ccccc1)NC(=O)[C@@H]1CCN1C(=O)[C@@H](N)Cc1ccc(O)cc1                  5.1

Query (compound): NC(=O)[C@H](Cc1ccccc1)NC(=O)[C@H](Cc1ccccc1)NC(=O)C1CN(C(=O)[C@@H](N)Cc2ccc(O)cc2)C1 ; field requested: Ki
6.9

Now this one: C=C(NC(=O)[C@@H](N)Cc1ccc(O)cc1)C(=O)N[C@@H](Cc1ccccc1)C(=O)N[C@@H](Cc1ccccc1)C(N)=O (H-Y[Dha]FF-NH2)
0.71
